Biological target: T1, human OX40 on cells (CHO-K1/hu OX40) (human, UniProt P43489 29-277)
T1 construct: whole, on cells; Also used here for OX40 on the HEK293/OX40/NF-kb reporter cells and on human T cells in the functional assays; also called CHO-K1/OX40; human OX40 cells
T1 sequence (looked up): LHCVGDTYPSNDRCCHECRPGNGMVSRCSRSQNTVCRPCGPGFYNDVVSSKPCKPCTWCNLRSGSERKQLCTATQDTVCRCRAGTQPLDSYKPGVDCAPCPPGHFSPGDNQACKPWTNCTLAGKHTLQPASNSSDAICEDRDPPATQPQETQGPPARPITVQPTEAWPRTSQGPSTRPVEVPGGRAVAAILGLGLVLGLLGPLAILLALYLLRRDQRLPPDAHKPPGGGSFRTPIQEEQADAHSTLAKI
Test: FACS, blocking of biotin-human OX40L on CHO-K1/hu OX40 cells
// reported Maximum inhibition rate (%) per item
Your answer should be a plain number; it is taken to be in %.

Previously resolved entries follow.
PR002072 (antibody, human IgG1, V domains shown, no light chain; also called anti-OX40 HCAb antibody) VH: EVQLLESGGGLVQPGGSLRLSCAASGFTFSSYAMSWVRQASGKGLEWISAISGSGGSTYYADSVRGRFTISRDNSKNTLYLQMNSLRADDTAVYYCANGMTGTTDVDFWGQGTPVTVSS : 14
PR002073 (antibody, human IgG1, V domains shown, no light chain; also called anti-OX40 HCAb antibody) VH: EVQLVESGGGLVQPGGSLRLSCAASGFTFSSYAMSWVRQAPGKGLEWVSAISGGSGSTFYADSVRGRFTISRDNSKNTLYLQMNSLRAEDTAVYYCADGVTGTDFDFWGQGTLVTVSS : 24
PR002067 (antibody, human IgG1, V domains shown, no light chain; also called anti-OX40 HCAb antibody) VH: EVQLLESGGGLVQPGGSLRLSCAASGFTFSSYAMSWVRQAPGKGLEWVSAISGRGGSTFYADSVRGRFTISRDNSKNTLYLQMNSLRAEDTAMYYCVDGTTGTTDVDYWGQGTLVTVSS : 64

We now examine a further binder.
Entry under review: PR002060 (antibody, human IgG1, V domains shown, no light chain; also called anti-OX40 HCAb antibody) VH: EVQLLESGGGLVQPGGSLRLSCAASGFTFSDYAMSWVRQAPGKGLEWVSAISGRGGSTYYADSVRGRFTISRDNSKNTLYLQMTSLRAEDTAVYYCANGMTGTTDVDYWGQGTLVTVSS . Reported Maximum inhibition rate (%)?
12
